target: Insulin-like growth factor 1 receptor (Homo sapiens, UniProt P08069); assay: Inhibition of human recombinant IGF1R
Sequence (P08069 31-736 limits assumed): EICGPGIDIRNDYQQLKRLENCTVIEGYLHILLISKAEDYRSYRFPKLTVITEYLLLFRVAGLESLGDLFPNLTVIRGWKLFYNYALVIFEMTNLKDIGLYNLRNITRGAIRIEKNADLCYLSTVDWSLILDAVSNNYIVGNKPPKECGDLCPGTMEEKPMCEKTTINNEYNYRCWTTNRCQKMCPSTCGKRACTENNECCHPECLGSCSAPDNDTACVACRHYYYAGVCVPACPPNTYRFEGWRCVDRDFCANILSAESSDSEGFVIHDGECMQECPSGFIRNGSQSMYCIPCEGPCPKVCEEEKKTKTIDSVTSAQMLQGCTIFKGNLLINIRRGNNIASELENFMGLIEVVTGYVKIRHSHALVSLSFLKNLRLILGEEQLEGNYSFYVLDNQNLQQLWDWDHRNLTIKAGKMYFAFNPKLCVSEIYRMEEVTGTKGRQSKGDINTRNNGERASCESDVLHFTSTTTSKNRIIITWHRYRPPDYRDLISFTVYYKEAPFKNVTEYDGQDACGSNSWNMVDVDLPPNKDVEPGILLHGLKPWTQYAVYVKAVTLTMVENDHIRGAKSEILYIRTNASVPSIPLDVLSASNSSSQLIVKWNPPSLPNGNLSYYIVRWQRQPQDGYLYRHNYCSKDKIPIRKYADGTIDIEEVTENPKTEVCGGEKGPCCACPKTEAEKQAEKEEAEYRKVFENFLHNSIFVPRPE
Sequence (P08069 741-1367 limits assumed): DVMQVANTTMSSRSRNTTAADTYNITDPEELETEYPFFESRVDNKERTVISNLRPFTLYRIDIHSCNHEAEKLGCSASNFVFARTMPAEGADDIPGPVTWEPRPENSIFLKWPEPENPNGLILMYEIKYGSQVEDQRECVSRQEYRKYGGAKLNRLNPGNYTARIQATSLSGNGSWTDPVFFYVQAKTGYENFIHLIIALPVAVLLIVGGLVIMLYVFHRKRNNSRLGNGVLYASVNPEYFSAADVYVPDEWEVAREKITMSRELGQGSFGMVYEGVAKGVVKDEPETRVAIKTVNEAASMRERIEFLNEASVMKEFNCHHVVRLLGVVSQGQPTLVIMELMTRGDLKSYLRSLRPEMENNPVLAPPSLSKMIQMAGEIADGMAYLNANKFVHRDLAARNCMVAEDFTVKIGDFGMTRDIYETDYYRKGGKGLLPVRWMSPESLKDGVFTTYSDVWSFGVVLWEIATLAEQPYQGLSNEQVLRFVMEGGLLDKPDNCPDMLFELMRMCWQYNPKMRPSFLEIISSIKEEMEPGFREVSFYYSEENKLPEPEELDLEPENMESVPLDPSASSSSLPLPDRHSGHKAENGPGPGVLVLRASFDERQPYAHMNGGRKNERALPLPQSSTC
Recorded Endpoint: IC50 (µM)
Lab book: enter the figure in µM, no units written.

Incoming: // returns reported IC50 for input `COc1cc(C2=C(c3cn(COCc4ccccc4)c4ccccc34)CNC2=O)cc(OC)c1OC`
Outgoing: 18

Incoming: Looking for the measured IC50 of `COc1cc(C2=C(c3cn(COCC[Si](C)(C)C)c4ccccc34)CNC2=O)cc(OC)c1OC` , can you help?
Outgoing: 8.7

* * *

Consider the following compounds; for each one, report its IC50.
biological target: Aurora kinase A (Homo sapiens); assay: Inhibition of human recombinant Aurora A
Sequence (O14965 whole entry): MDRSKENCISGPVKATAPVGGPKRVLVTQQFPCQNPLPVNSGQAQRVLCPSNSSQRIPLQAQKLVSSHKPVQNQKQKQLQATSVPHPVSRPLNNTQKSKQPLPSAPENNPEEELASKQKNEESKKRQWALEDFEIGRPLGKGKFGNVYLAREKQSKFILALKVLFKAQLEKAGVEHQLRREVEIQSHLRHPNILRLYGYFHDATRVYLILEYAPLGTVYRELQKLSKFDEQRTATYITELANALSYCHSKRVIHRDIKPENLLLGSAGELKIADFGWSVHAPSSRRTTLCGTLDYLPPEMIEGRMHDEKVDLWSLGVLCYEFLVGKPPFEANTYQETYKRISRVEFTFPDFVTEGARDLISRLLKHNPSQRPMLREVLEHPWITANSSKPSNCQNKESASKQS
Give a bare numeral; the unit µM is implied.

Incoming: Requested field: IC50. Item: COc1cc(C2=C(c3cn(CC(O)CO)c4ccccc34)CNC2=O)cc(OC)c1OC (stereo not given)
Outgoing: 47

Incoming: Param item = `COc1ccc(C2=C(c3c[nH]c4ccccc34)C(=O)NC2)cc1` ; retrieve measured IC50.
Outgoing: 16

Incoming: What value of measured IC50 is listed for `COc1cc(C2=C(c3cn(COC(C)C)c4ccccc34)CNC2=O)cc(OC)c1OC` ?
Outgoing: 33

Incoming: # input compound: `CCOCn1cc(C2=C(c3cc(OC)c(OC)c(OC)c3)C(=O)NC2)c2ccccc21` ; wanted: its IC50
Outgoing: 29

Incoming: // IC50 lookup, key: `COc1cc(C2=C(c3c[nH]c4ccccc34)CNC2=O)cc(OC)c1OC`
Outgoing: 16
